- Measurement conditions: human gut metagenome, 24 h, 2 µM; note: call rule not given here
Experimental readout: Bacterial Biotransformation

// solved cases for Bacterial Biotransformation follow
CCN(CC)C(=O)C1(c2ccccc2)CC1CN (configuration not stated) = Compound NOT metabolized
CCN(CC)CCNC(=O)c1cc(S(C)(=O)=O)ccc1OC [TIAPRIDE] = Compound metabolized
COCCCC/C(=N\OCCN)c1ccc(C(F)(F)F)cc1.O=C(O)/C=C\C(=O)O [FLUVOXAMINE MALEATE] = Compound NOT metabolized
CC(C)(C)N.CCC[C@H](N[C@@H](C)C(=O)N1[C@H](C(=O)O)C[C@@H]2CCCC[C@@H]21)C(=O)OCC [PERINDOPRIL ERBUMINE] = Compound metabolized
CC(C)(C)NC[C@H](O)COc1nsnc1N1CCOCC1.O=C(O)/C=C\C(=O)O [TIMOLOL MALEATE] = Compound NOT metabolized

[Q] Consider the compound COc1ccccc1OCCNCC(O)COc1cccc2[nH]c3ccccc3c12 (configuration not stated) [CARVEDILOL] and give its measured Bacterial Biotransformation.
[A] Compound metabolized

[Q] Consider the compound CN(C/C=C/C#CC(C)(C)C)Cc1cccc2ccccc12 [TERBINAFINE] and give its measured Bacterial Biotransformation.
[A] Compound NOT metabolized

[Q] Consider the compound CC[C@@]1(O)C(=O)OCc2c1cc1n(c2=O)Cc2cc3c(CN(C)C)c(O)ccc3nc2-1 [TOPOTECAN] and give its measured Bacterial Biotransformation.
[A] Compound NOT metabolized

[Q] Consider the compound CC(=O)O[C@H]1C(=O)[C@@]2(C)[C@H]([C@H](OC(=O)c3ccccc3)[C@]3(O)C[C@H](OC(=O)[C@H](O)[C@@H](NC(=O)c4ccccc4)c4ccccc4)C(C)=C1C3(C)C)[C@]1(OC(C)=O)CO[C@@H]1C[C@@H]2O [PACLITAXEL] and give its measured Bacterial Biotransformation.
[A] Compound NOT metabolized

[Q] Consider the compound CC1=C(CC(=O)O)c2cc(F)ccc2/C1=C\c1ccc([S+](C)[O-])cc1 (configuration not stated) and give its measured Bacterial Biotransformation.
[A] Compound metabolized

[Q] Consider the compound CCc1oc2ccccc2c1C(=O)c1cc(Br)c(O)c(Br)c1 [BENZBROMARONE] and give its measured Bacterial Biotransformation.
[A] Compound metabolized

[Q] Consider the compound COc1ccc2c(c1)c(CC(=O)O)c(C)n2C(=O)c1ccc(Cl)cc1 [INDOMETHACIN] and give its measured Bacterial Biotransformation.
[A] Compound metabolized

[Q] Consider the compound CC(C)(C)NCC(O)c1cc(Cl)c(N)c(Cl)c1 (configuration not stated) [CLENBUTEROL] and give its measured Bacterial Biotransformation.
[A] Compound NOT metabolized

[Q] Consider the compound CC(C)(C)NC(=O)[C@H]1CC[C@H]2[C@@H]3CC[C@H]4NC(=O)C=C[C@]4(C)[C@H]3CC[C@]12C [FINASTERIDE] and give its measured Bacterial Biotransformation.
[A] Compound metabolized

[Q] Consider the compound CCCC(C)(COC(N)=O)COC(=O)NC(C)C (configuration not stated) [CARISOPRODOL] and give its measured Bacterial Biotransformation.
[A] Compound metabolized

[Q] Consider the compound CC(C)(C)NCC(O)COc1cccc2c1CC(O)C(O)C2 (configuration not stated) [NADOLOL] and give its measured Bacterial Biotransformation.
[A] Compound metabolized

[Q] Consider the compound N[C@@H](Cc1ccc(N(CCCl)CCCl)cc1)C(=O)O and give its measured Bacterial Biotransformation.
[A] Compound metabolized

Reference source for all entries: ChEMBL document CHEMBL5724914
